HCT-15 data, read-out GI50

INSERT INTO assay_data (molecule, measured_target, observation_type, measured) VALUES
  ('NC(=O)c1cnc2sc3ccccc3n2c1=O', 'HCT-15', 'GI50', '> 100 µM');

Query: System HCT-15. Read-out GI50. Item CC(=O)O[C@@H]1[C@H]2[C@@H](OC(=O)c3ccccc3)[C@@H](C)C[C@]2(O)[C@H](OC(C)=O)[C@@]2(C)[C@@H]3CC(C)(C)C(=O)[C@]3(OC(C)=O)C[C@@]12C . Report value.
Result: > 25 µM

Query: Report value: GI50, system: HCT-15, molecule: COC(=O)[C@H](Cc1ccccc1)NC(=O)N(CCC#N)CCN(C(=O)N[C@@H](Cc1ccccc1)C(=O)OC)c1ccccc1
Result: 38.5 µM

Query: Please report GI50 with HCT-15 for item CC(C)N(C(=O)C12C3C4C1C1C4(C#N)C3C12C#N)C(C)C (centres undefined) .
Result: > 100 µM

Reference for the values: ChEMBL document CHEMBL1201862
